Tested on: SR leukemia
Test: NCI-60 one-dose screen, 48 h
Conditions: 10 µM unless noted
The panel holds about 83,000 compounds, 20% with a hit somewhere; the sample as a whole holds those more often. Calls of active or inactive are those of the source. How the source made its calls: active means growth percent below 10; inactive means the rest.
Possible outcomes: 1.0 = active, 0.0 = inactive

compound	class
COc1cc([C@@H](CCO)C[C@H](C)c2ccc3ccccc3c2)cc(OC)c1OC	0.0
CC(C)n1c2ccc(Br)cc2c2c3c(c4c5ccccc5ccc4c21)C(=O)NC3=O	0.0
O=C(NN1C(=O)CSC1c1cccc([N+](=O)[O-])c1)c1ccc(NC(=O)c2ccccn2)cc1 (stereo not given)	0.0
C[C@@H]1CN(c2cnc(C(=O)Nc3cc(F)cc4cccnc34)cn2)C[C@H](C)N1	0.0
COc1ccc(Nc2ncc(C#N)c(NCCCNC(=O)C3CCC3)n2)cc1	0.0
CCN1C2CCC1/C(=C\c1ccccc1)C(=O)/C2=C/c1ccccc1	0.0
COC(=O)c1sccc1-c1cc(O)c(C(=O)Nc2ccccc2)s1	0.0
CCCC(O)Cn1ncc(C(=O)OCC)c1NC(=O)NCc1cccc(C(F)(F)F)c1 (stereo not given)	0.0
Cc1ccc2cnc(N)c(C#Cc3cc(C(=O)Nc4ccc(CN5CCN(C)CC5)c(C(F)(F)F)c4)cnc3C)c2c1	1.0
COc1cc(-c2nccc3[nH]c(-c4cccc5[nH]ccc45)nc23)cc(OC)c1OC	1.0

====

Item-by-item account of growth
Tested on: DU-145 prostate
Assay: NCI-60 one-dose screen, 48 h (100 = growth as untreated, 0 = no growth, -100 = all killed)
Conditions: 10 µM unless noted
Description: Cells are grown in 96 well plates and exposed to the test compound for 48 hours. Compounds are tested at a single concentration, which is 10^-5 M for most compounds. The reported endpoint is percent growth (GI% or GIPRCNT), where numbers from 0 - 100% represent growth inhibition, and numbers from -100% - 0 represent cell death. For example, a value of 40 represents 60% growth inhibition. A value of 0 means no net growth occurred over the course of the experiment. […]
This is part of a sample that, as a whole, favours compounds with a hit. Of some 83,000 tested, about 20% had one in any assay. Activity calls are given as the source filed them. The calls were made as follows: active = growth percent below 10; inactive = the rest.

record-smiles	growth
O=C(NCCN1CCOCC1)OCc1ccc2c(Cl)cc(Cl)c(O)c2n1	57.7% (inactive)
COC(=O)/C=C1/SC(=NCc2ccccc2)N(CCc2c[nH]c3ccccc23)C1=O	72.5% (inactive)
O=C(/C=C/c1ccccc1)N(C1CCCCC1)C1CCCCC1	104% (inactive)
COc1ccc(/C=N/Nc2c3ccccc3nc3ccccc23)cc1	90.4% (inactive)
CCSc1ccnc(N)n1	105% (inactive)
ClC(Cl)c1nc(-c2ccccc2)n2nc(-c3ccccc3)cc2n1	-12% (active)

====

Tested on: SK-MEL-2 melanoma
Assay: NCI-60 one-dose screen, 48 h (100 = growth as untreated, 0 = no growth, -100 = all killed)
Conditions: 10 µM unless noted
The panel holds about 83,000 compounds, 20% with a hit somewhere; the sample as a whole holds those more often.
Strictly below 70% in growth: rule met. Otherwise: rule not met.

record-smiles	class
CSc1nc(-c2ccco2)c(C#N)c(=O)n1C	rule not met
COc1cc(-c2ccc[nH]2)[nH]c1/C=C1\N=C(C)C(CC(=O)OCC(C)(C)C)=C1C	rule met
Cc1nc2ccccc2c(/C=C/c2ccc(F)cc2)c1C(=O)/C=C/c1ccccc1	rule met
Nc1cc(Br)cc2c1[nH]c(=O)c1ccccc12	rule not met
O=c1oc2ccccc2cc1-c1nn(-c2ccccc2)cc1-c1nn[nH]n1	rule not met
COC(=O)[C@@]1(C)CC[C@]2(C)CC[C@]3(C)C4=CC=C5C(=CC(=O)C(O)=C5C)[C@]4(C)[C@@H](O)C[C@@]3(C)[C@@H]2C1	rule met
CN(C)CCCn1c2c(c3ccncc3c1=O)C(=O)c1ccccc1-2	rule met
N=C(N)c1ccc(OCCSCCOc2ccc(C(=N)N)cc2)cc1	rule not met
